Recorded log10(IC50) by entry
System: A549
assayComment: Cytotoxic activity against human A549 bulk cells incubated for 72 hrs by Cell-titer-Glo luminescence assay
Assay type: functional, cell-based
assayContext: A549, 72 h
Friendly reminder: values = log10 of IC50, unit µM.

Completed entries (count: 6):
• Cc1ccc(-c2ccc3c(c2)/C(=C/c2[nH]c(C)cc2C)C(=O)N3)cn1 = 1.41
• CCN(CC)CCNC(=O)c1c(C)[nH]c(/C=C2\C(=O)Nc3ccc(-c4csc(-n5ccnc5)n4)cc32)c1C = 0.79
• COc1ncc(-c2cccc3c2/C(=C/c2[nH]c(C)cc2C)C(=O)N3)cn1 = 1.32
• CCN(CC)CCNC(=O)c1c(C)[nH]c(/C=C2\C(=O)Nc3ccc(-c4ccc5ccccc5n4)cc32)c1C = 0.26
• CCN(CC)CCNC(=O)c1c(C)[nH]c(/C=C2\C(=O)Nc3ccc(-c4ncccc4OC)cc32)c1C = 0.87
• Cc1[nH]c(/C=C2\C(=O)Nc3c2cccc3-c2csc(-c3ccccc3)n2)c(C)c1C(=O)N1CCN(C)CC1 = 0.73

input: Please report the recorded log10(IC50) for Cc1cc(C)c(/C=C2\C(=O)Nc3ccc(-c4csc(-n5cccn5)n4)cc32)[nH]1 .
output: 0.99

input: Requested read-out: log10(IC50). Entry: COc1ccc(-c2cccc3c2NC(=O)/C3=C\c2[nH]c(C)cc2C)cn1
output: 1.39

input: Entry CCN(CC)CCNC(=O)c1c(C)[nH]c(/C=C2\C(=O)Nc3c2cccc3-c2cncc(C)c2)c1C : reported log10(IC50) = ?
output: 0.53

* * *

system: Ribosomal protein S6 kinase (Homo sapiens) (UniProt P51812+Q9UBS0+O75676+Q15349+O75582+P23443+Q9UK32+Q15418)
assayComment: Inhibition of RPS6 kinase in human HeLa cells assessed as p-RPS6 Ser240/244 phosphorylation level at 5 uM incubated for 6 hrs by SDS-PAGE based chemiluminescence assay
Type: cell-based
Design: scale not given: the % may be the effect or the level left
readoutKind: Activity (%)
Report the value in % with no unit label.

• COc1ncc(-c2cccc3c2NC(=O)/C3=C\c2[nH]c(C)cc2C)cn1 = 54
• Cc1cc(C)c(/C=C2\C(=O)Nc3c2cccc3-c2ccncc2)[nH]1 = 65
• Cc1[nH]c(/C=C2\C(=O)Nc3cccc(-c4ccc(-c5ccccc5)cc4)c32)c(C)c1C(=O)N1CCN(C)CC1 = 36

input: Consider the molecule Cc1[nH]c(/C=C2\C(=O)Nc3cc(-c4csc(-c5ccccc5)n4)ccc32)c(C)c1C(=O)N1CCOCC1 and give its measured Activity.
output: 44

input: What does the data say about its Activity? Entry: Cc1[nH]c(/C=C2\C(=O)Nc3ccc(-c4cnn(-c5ccccn5)c4)cc32)c(C)c1C(=O)NCCN1CCCC1
output: 92

input: Need Activity of CCN(CC)CCNC(=O)c1c(C)[nH]c(/C=C2\C(=O)Nc3c2cccc3-c2cccnc2OC)c1C , thanks.
output: 54

input: So what's the measured Activity for this one? Cc1nc(-c2ccccc2)oc1-c1ccc2c(c1)NC(=O)/C2=C\c1[nH]c(C)c(C(=O)N2CCN(C)CC2)c1C
output: 21

input: Requested field: Activity. Item: CCN(CC)CCNC(=O)c1c(C)[nH]c(/C=C2\C(=O)Nc3ccc(-c4n[nH]c5ccccc45)cc32)c1C
output: 26
